- Tested on: RARg homodimer (NR concentration 270 nM)
- TEST NAME: PBM binding z-score (relative to random genomic background probes); higher = stronger binding; sequences stand for … in GC…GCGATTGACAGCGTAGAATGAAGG
MEASURED QUANTITY: PBM binding z-score
Could you keep your reply to the number by itself?

{"SEQ TEXT": "ATACCAATGTGATCGTGAGGTCGTTGATACTAAC", "PBM binding z-score": 0.227}
{"SEQ TEXT": "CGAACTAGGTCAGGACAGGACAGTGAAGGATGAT", "PBM binding z-score": 4.34}
{"SEQ TEXT": "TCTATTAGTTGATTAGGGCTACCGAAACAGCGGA", "PBM binding z-score": 0.15}
{"SEQ TEXT": "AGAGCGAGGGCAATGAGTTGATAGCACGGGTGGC", "PBM binding z-score": 1.31}
{"SEQ TEXT": "GGAACGAGGGCAAGTTGATAACAGAGTTTGATGG", "PBM binding z-score": 2.06}

Entry ACAGACAGGTGATGAAGGTAACTCAAGCTATCAT , PBM binding z-score reported as 0.537

Record TCTTGTAGATCAATAGAGGTTAAGAGAGTGCGCT . Reported PBM binding z-score: 0.443

Note to self: PBM binding z-score recorded for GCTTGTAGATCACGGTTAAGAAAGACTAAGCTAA was -0.36

PBM binding z-score recorded for this sequence, AGTCAAAGTTCACTAGGTAACGTTAGATTCAGCT , is 5.57

* * *

Each entry below lists one item and its recorded PBM binding z-score value.
- Test system: RARg:RXRa (NR concentration 270 nM, RXRa partner concentration 90 nM)
- TEST NAME: PBM binding z-score (relative to random genomic background probes); higher = stronger binding; sequences stand for … in GC…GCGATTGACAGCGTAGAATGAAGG

Here are 4 sequences together with their reported answers.
{"SEQ TEXT": "CCGAGTAGGTTAGGGGGCATTCAGGCAACGGTGA", "PBM binding z-score": 2.21}
{"SEQ TEXT": "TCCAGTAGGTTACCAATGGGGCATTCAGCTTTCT", "PBM binding z-score": 1.45}
{"SEQ TEXT": "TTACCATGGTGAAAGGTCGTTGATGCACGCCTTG", "PBM binding z-score": 2.17}
{"SEQ TEXT": "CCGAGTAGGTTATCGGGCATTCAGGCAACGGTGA", "PBM binding z-score": 0.431}

Reported PBM binding z-score (RARg:RXRa (NR concentration 270 nM, RXRa partner concentration 90 nM)) for entry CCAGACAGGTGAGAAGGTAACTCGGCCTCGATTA is 0.465

Considering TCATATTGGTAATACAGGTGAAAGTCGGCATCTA , its PBM binding z-score with RARg:RXRa (NR concentration 270 nM, RXRa partner concentration 90 nM) was recorded as 0.388

Entry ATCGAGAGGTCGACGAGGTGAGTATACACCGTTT ; assay system RARg:RXRa (NR concentration 270 nM, RXRa partner concentration 90 nM); PBM binding z-score recorded at 3.1

Observed PBM binding z-score on RARg:RXRa (NR concentration 270 nM, RXRa partner concentration 90 nM), entry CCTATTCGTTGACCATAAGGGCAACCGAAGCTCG , equals 1.16

Measured PBM binding z-score for this entry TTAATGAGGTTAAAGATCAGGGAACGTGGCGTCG on RARg:RXRa (NR concentration 270 nM, RXRa partner concentration 90 nM): 2.56

Result for CCTAGTTGGTCAAGGTCACAGACGCTATAGGTAC , tested on RARg:RXRa (NR concentration 270 nM, RXRa partner concentration 90 nM), PBM binding z-score: 4.74

Item ACTATTAGTTGACGTAGGGCAACCGATACGACGC ; assay system RARg:RXRa (NR concentration 270 nM, RXRa partner concentration 90 nM); PBM binding z-score reported as 0.445

* * *

- Test system: PPARg:RXRa 30nM:10nM, anti-RXR (NR concentration 30 nM, RXRa partner concentration 10 nM)
- TEST NAME: PBM binding z-score (relative to random genomic background probes); higher = stronger binding; sequences stand for … in GC…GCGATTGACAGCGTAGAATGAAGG
Returns one of YES or NO; YES when PBM binding z-score is >= 0.8.

Examples with answers:
{"SEQ TEXT": "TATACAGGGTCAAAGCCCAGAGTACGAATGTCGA", "CAT": "YES"}
{"SEQ TEXT": "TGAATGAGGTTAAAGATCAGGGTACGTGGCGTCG", "CAT": "YES"}
{"SEQ TEXT": "TCCCGGAGGACACGAAGGTCAGAGCTTTCCAGAG", "CAT": "YES"}
{"SEQ TEXT": "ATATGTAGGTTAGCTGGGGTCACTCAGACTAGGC", "CAT": "YES"}
{"SEQ TEXT": "CCTCGGAGGACAACAGGAGGTCAGAGCGGCCAGA", "CAT": "NO"}

Task: Determine whether measured PBM binding z-score meets or exceeds 0.8 for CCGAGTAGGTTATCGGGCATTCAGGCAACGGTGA
Result: YES

* * *

Here, each record is paired with measured PBM binding z-score data.
- Test system: LXRa homodimer (NR concentration 270 nM)
- TEST NAME: PBM binding z-score (relative to random genomic background probes); higher = stronger binding; sequences stand for … in GC…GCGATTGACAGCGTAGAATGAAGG
// no unit string in output, number only

# annotated cases, reported PBM binding z-score shown
{"SEQ TEXT": "TCTCGGAGGATACGAAAGGTCAGAGCTCGACATC", "TARGET OR TEST SYSTEM": "LXRa homodimer (NR concentration 270 nM)", "MEASURED QUANTITY": "PBM binding z-score", "EXPERIMENTAL RESULT": 2.95}
{"SEQ TEXT": "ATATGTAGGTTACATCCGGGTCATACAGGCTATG", "TARGET OR TEST SYSTEM": "LXRa homodimer (NR concentration 270 nM)", "MEASURED QUANTITY": "PBM binding z-score", "EXPERIMENTAL RESULT": 1.41}
{"SEQ TEXT": "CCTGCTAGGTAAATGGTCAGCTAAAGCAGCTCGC", "TARGET OR TEST SYSTEM": "LXRa homodimer (NR concentration 270 nM)", "MEASURED QUANTITY": "PBM binding z-score", "EXPERIMENTAL RESULT": -0.748}
{"SEQ TEXT": "ACTGACGGGTCAACGAGGTTATAGCACGCGTATA", "TARGET OR TEST SYSTEM": "LXRa homodimer (NR concentration 270 nM)", "MEASURED QUANTITY": "PBM binding z-score", "EXPERIMENTAL RESULT": 0.67}

Turning to the following sequence.
Per the record, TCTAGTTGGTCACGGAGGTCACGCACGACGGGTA has PBM binding z-score of 2.94

* * *

- Test system: VDR:RXRa (NR concentration 270 nM, RXRa partner concentration 90 nM)
- TEST NAME: PBM binding z-score (relative to random genomic background probes); higher = stronger binding; sequences stand for … in GC…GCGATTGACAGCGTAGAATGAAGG
MEASURED QUANTITY: PBM binding z-score
# print the numeric value only

Record excerpt, results attached:
{"SEQ TEXT": "TAGCCTAGGTCATGGGCCATTATACCACGCGAAC", "PBM binding z-score": 2.27}
{"SEQ TEXT": "TGTCAAAGTTCAAAGGTAATGTAAGTATCCACAC", "PBM binding z-score": 4.69}
{"SEQ TEXT": "TCTAATTGGTCAAAGGTCACACACTCGAAATGCG", "PBM binding z-score": 5.62}
{"SEQ TEXT": "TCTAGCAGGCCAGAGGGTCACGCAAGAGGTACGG", "PBM binding z-score": 2.52}
{"SEQ TEXT": "CCTACTGGGCCATGAGGTCATTGATATCAACGTT", "PBM binding z-score": 4.43}

// PBM binding z-score lookup, sequence = TCTTGTAGATCAATAGAGGTTAAGACAGTGCGCT , result: 1.7

Record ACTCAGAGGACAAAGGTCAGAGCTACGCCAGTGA . Reported PBM binding z-score: 3.62

# PBM binding z-score of TCATATACGTAAACAGGTGAAAGTCCGTAAGTTA = 1.38

Briefly, PBM binding z-score measured for GATACAGGGTCAAGTCCAGAGTACGCGTATTGAT : 4.66

So, CCGAGTAGGTTTTGGGGCATTCAGGCAACGGTGA ? Its PBM binding z-score was -0.239

Given item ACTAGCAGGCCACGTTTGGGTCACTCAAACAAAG , the value recorded as its PBM binding z-score is 0.312

Data point: CCTACTGGGCCAATCAGAGGTCATTGATCATATG ; PBM binding z-score = 4.12

The sequence CTCGAAAGGTCGTGCTCAGCTGAGTATACCAAAC showed PBM binding z-score equal to 3.17

Looking up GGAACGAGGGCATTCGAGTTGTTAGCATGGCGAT , I found its PBM binding z-score recorded as 2.82

Kindly note the recorded PBM binding z-score for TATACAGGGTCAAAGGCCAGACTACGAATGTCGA , which is 4.68

Consider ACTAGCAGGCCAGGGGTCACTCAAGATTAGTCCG . Its measured PBM binding z-score is 4.42

According to the records, this sequence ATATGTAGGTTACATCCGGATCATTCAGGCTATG displays PBM binding z-score of 0.945

Origin of measurements: the supplement of paper PMC6555819
